The measured values listed here are drawn from ChEMBL document CHEMBL5036351.

Assay: Bioavailability in C57BL/6 mouse at 1 mg/kg, iv
Type: ADME, organism-based
Conditions: in vivo
property: bioavailability (%)
Kindly answer with a numeric value in %, unit omitted.

Quick note, bioavailability for "O=S(=O)(Nc1ccc(S(=O)(=O)C(F)(F)F)cc1Oc1cc(F)cc(F)c1)c1ccccc1" landed at 64

----------
Assay: MRT in C57BL/6 mouse at 3 mg/kg, po
Type: ADME, organism-based
Conditions: in vivo
property: MRT (h)
Kindly answer with a numeric value in h, unit omitted.

Quick note, MRT for "O=S(=O)(Nc1ccc(S(=O)(=O)C(F)(F)F)cc1Oc1cc(F)cc(F)c1)c1ccccc1" landed at 6.73
